Molecular target: Phosphorylase b kinase gamma catalytic chain, skeletal muscle/heart isoform (Homo sapiens) (UniProt Q16816);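 further: values are averaged percent inhibition of PHKG1 kinase activity, from the GSK PKIS inhibitor-set screen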
Sequence (Q16816 whole entry, looked up, canonical isoform): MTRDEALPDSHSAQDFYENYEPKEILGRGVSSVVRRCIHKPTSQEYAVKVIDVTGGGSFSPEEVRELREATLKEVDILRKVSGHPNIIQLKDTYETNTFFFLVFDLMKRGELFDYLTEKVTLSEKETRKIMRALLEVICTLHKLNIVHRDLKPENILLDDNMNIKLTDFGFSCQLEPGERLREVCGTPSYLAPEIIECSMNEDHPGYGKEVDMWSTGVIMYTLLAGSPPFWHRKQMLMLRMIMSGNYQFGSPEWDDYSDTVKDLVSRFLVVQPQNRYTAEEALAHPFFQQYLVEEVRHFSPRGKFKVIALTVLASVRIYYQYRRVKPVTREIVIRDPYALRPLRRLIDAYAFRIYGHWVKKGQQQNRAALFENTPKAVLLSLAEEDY
Details: at 0.1 µM

{"Smiles data": "Fc1ccc(-c2nn3ncccc3c2-c2ccnc(Nc3ccc4c(c3)OCCO4)n2)cc1", "inhibition / %": 4.49}
{"Smiles data": "COc1ccc(-c2oc3ncnc(N)c3c2-c2ccc(NC(=O)Nc3cc(C(F)(F)F)ccc3F)cc2)cc1", "inhibition / %": 4.93}
{"Smiles data": "O=C(Nc1n[nH]c2cc(-c3ccc(F)cc3)ccc12)C1CC1", "inhibition / %": 3.89}
{"Smiles data": "CCCN(CCS(C)(=O)=O)Cc1ccc(-c2ccc3ncnc(Nc4ccc(OCc5cccc(F)c5)c(Cl)c4)c3c2)o1", "inhibition / %": 1.09}
{"Smiles data": "Nc1ncc(-c2cccc(S(N)(=O)=O)c2)c2scc(-c3ccc(F)c(Cl)c3)c12", "inhibition / %": 4.52}
{"Smiles data": "COc1ccc2c(-c3ccnc(Nc4cccc(OC(F)(F)F)c4)n3)cnn2n1", "inhibition / %": 2.28}
{"Smiles data": "CCN1CCC(CC(=O)Nc2n[nH]c3nnc(-c4cccc(F)c4F)cc23)CC1", "inhibition / %": 5.02}
{"Smiles data": "CNC(=O)c1cc(-c2ccc(F)cc2)cc(-c2ccc(S(=O)(=O)N3CCCC3)cc2)c1N", "inhibition / %": 2.9}
{"Smiles data": "c1cc(-c2cnn3nc(N4CCOCC4)ccc23)nc(NC2CC2)n1", "inhibition / %": 3.94}

* * *

Molecular target: Ribosomal protein S6 kinase alpha-4 (Homo sapiens);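 further: values are mean inhibition of MSK2, from GSK PKIS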
Details: at 0.1 µM
Listed here: items and their measured inhibition.

{"Smiles data": "CS(=O)(=O)CCNCc1coc(-c2ccc3ncnc(Nc4ccc(OCc5ccccc5)cc4)c3c2)c1", "inhibition (%)": 2.52}
{"Smiles data": "Clc1ccc(-c2nn3ncccc3c2-c2ccnc(Nc3ccccc3)n2)cc1", "inhibition (%)": 1}
{"Smiles data": "COc1ccc(CNC(=O)c2ccc(-c3cc(-c4nnc(C)o4)ccc3C)cc2)cc1", "inhibition (%)": 3.89}
{"Smiles data": "COc1cc(Nc2nccc(Nc3ccc4c(C)n[nH]c4c3)n2)cc(OC)c1OC", "inhibition (%)": 1.54}
{"Smiles data": "COC(=O)Nc1nc2ccc(S(=O)(=O)c3ccc(NC(=O)Nc4cc(C(F)(F)F)ccc4F)cc3)cc2[nH]1", "inhibition (%)": 0.77}

* * *

Biological target: Phosphatidylinositol 4,5-bisphosphate 3-kinase catalytic subunit alpha isoform (Homo sapiens);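 further: values are mean inhibition figures from the GSK PKIS kinase panel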
Details: at 0.1 µM
Reported inhibition values for the following compounds.

{"Smiles data": "COc1cccc(-n2ncc3c(N/N=C/c4ccc(F)cc4)ncnc32)c1", "Unit name": "%", "inhibition": 3.46}
{"Smiles data": "CC(C)(CO)CNC(=O)c1ccc2c(c1)/C(=N/Nc1ccc(S(N)(=O)=O)cc1)C(=O)N2", "Unit name": "%", "inhibition": -2.03}
{"Smiles data": "Nc1nc(-c2ccc(F)cc2)c(-c2ccc3ncccc3n2)s1", "Unit name": "%", "inhibition": 7.33}
{"Smiles data": "Cc1cccc(Nc2ncc(-c3ccccc3)o2)c1", "Unit name": "%", "inhibition": 0.69}
{"Smiles data": "CCN1CCC(CC(=O)Nc2n[nH]c3nnc(-c4cccc(F)c4F)cc23)CC1", "Unit name": "%", "inhibition": 3.38}
{"Smiles data": "CCn1c(-c2nonc2N)nc2c(C#CC(C)(C)O)nc(OC[C@H](N)c3ccccc3)cc21", "Unit name": "%", "inhibition": 1.03}
{"Smiles data": "c1ccc(-c2nc3n(c2-c2ccc4c(c2)OCO4)CCC3)nc1", "Unit name": "%", "inhibition": 5.05}
{"Smiles data": "Fc1ccc(-c2nn3ncccc3c2-c2ccnc(Nc3ccc4c(c3)OCCO4)n2)cc1", "Unit name": "%", "inhibition": 3.44}
{"Smiles data": "CCN(CC)S(=O)(=O)c1ccc(OC)c(Nc2ncc(-c3ccccc3)o2)c1", "Unit name": "%", "inhibition": -0.56}
{"Smiles data": "CS(=O)(=O)CCNCc1ccc(-c2ccc3ncnc(Nc4ccc(OCc5ccccc5)c(C(F)(F)F)c4)c3c2)o1", "Unit name": "%", "inhibition": 4.02}
{"Smiles data": "Cc1cccc2c1NC(=O)/C2=N\\Nc1ccc(S(N)(=O)=O)cc1", "Unit name": "%", "inhibition": 2.47}
{"Smiles data": "CN(C)CCOc1ccc(-c2nc(-c3ccncc3)c(-c3ccc4c(c3)CC/C4=N\\O)[nH]2)cc1", "Unit name": "%", "inhibition": 3.08}
{"Smiles data": "CNC(=O)c1cncc(/C=C/c2ccccc2Cl)c1", "Unit name": "%", "inhibition": 1.22}
{"Smiles data": "Cc1ccc2c(-c3ccnc(Nc4ccccc4)n3)c(-c3ccc(F)cc3)nn2n1", "Unit name": "%", "inhibition": 2.88}
{"Smiles data": "COc1ccc2[nH]c3c4[nH]c5ccc(OC)cc5c4c4c(c3c2c1)C(=O)NC4=O", "Unit name": "%", "inhibition": 6.77}

* * *

Measured inhibition, listed per entry for reference.
Target: RAC-beta serine/threonine-protein kinase (Homo sapiens) (UniProt P31751);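 further: reported figure is the mean percent inhibition of AKT2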
Sequence (P31751 whole entry): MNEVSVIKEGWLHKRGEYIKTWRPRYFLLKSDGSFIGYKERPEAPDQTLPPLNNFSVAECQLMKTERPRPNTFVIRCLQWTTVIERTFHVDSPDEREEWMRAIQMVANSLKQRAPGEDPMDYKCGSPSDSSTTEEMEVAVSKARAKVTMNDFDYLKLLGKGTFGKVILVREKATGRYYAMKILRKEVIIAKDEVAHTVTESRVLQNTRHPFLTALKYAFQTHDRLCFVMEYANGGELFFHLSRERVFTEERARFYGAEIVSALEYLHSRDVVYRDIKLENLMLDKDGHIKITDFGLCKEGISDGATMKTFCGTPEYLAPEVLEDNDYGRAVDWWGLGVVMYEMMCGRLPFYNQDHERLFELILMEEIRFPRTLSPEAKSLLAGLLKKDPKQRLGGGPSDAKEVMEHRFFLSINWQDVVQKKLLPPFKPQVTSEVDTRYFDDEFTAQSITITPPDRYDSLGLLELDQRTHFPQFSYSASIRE
Conditions: at 0.1 µM

{"Smiles data": "CNC(=O)c1cc(-c2ccc(F)cc2)cc(-c2ccc(S(=O)(=O)N3CCCC3)cc2)c1N", "Unit name": "%", "inhibition": 1.23}
{"Smiles data": "Cc1ccc(O)cc1Nc1ccnc2cc(-c3ccccn3)ccc12", "Unit name": "%", "inhibition": 2.69}
{"Smiles data": "CCn1c(-c2nonc2N)nc2c(C#CC(C)(C)O)ncc(OC3CCNCC3)c21", "Unit name": "%", "inhibition": 85.2}

* * *

Examples of compounds with documented inhibition follow.
Biological target: Protein kinase C gamma type (Homo sapiens);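 further: each value is an averaged percent inhibition of the enzyme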
Details: at 1 µM

{"Smiles data": "CS(=O)(=O)CCNCc1ccc(-c2ccc3ncnc(Nc4ccc(OCc5ccccc5)c(C(F)(F)F)c4)c3c2)o1", "inhibition": "0.29%"}
{"Smiles data": "CC(C)COC(=O)c1ccc2c(c1)/C(=C/Nc1ccc(S(N)(=O)=O)cc1)C(=O)N2", "inhibition": "9.06%"}
{"Smiles data": "COc1cccc(-n2ncc3c(N/N=C/c4ccc(F)cc4)ncnc32)c1", "inhibition": "2.6%"}
{"Smiles data": "O=C(Nc1n[nH]c2cc(-c3ccc(F)cc3)ccc12)C1CC1", "inhibition": "5.71%"}
{"Smiles data": "CC(=O)NCc1cccc(C#Cc2cncnc2Nc2ccc(OCc3cccc(F)c3)c(Cl)c2)c1", "inhibition": "1.3%"}

* * *

Molecular target: Fibroblast growth factor receptor 1 (Homo sapiens);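 further: values are reported as mean percent inhibition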
Conditions: at 0.1 µM
Readout name: inhibition (%)

{"Smiles data": "CN1CCC(n2cnc(-c3ccc(F)cc3)c2-c2ccnc(Nc3ccccc3)n2)CC1", "Readout name": "inhibition", "Unit name": "%", "Value": 1.2}
{"Smiles data": "Clc1ccc(-c2nn3ncccc3c2-c2ccnc(Nc3ccccc3)n2)cc1", "Readout name": "inhibition", "Unit name": "%", "Value": -0.82}
{"Smiles data": "CCOc1ccc2c(-c3ccnc(Nc4cccc(C(F)(F)F)c4)n3)cnn2n1", "Readout name": "inhibition", "Unit name": "%", "Value": 2.54}
{"Smiles data": "CN1CCC(n2cnc(-c3ccc(F)cc3)c2-c2ccnc(N)n2)CC1", "Readout name": "inhibition", "Unit name": "%", "Value": -0.33}
{"Smiles data": "O=C(Nc1n[nH]c2cc(-c3ccc(F)cc3)ccc12)C1CC1", "Readout name": "inhibition", "Unit name": "%", "Value": 3.72}
{"Smiles data": "NC(=O)c1sc(-n2cnc3ccc(C(F)(F)F)cc32)cc1OCc1ccccc1Br", "Readout name": "inhibition", "Unit name": "%", "Value": 4.99}
{"Smiles data": "COC(=O)Nc1nc2ccc(Oc3ccc(NC(=O)Nc4cccc(Cl)c4)cc3)cc2[nH]1", "Readout name": "inhibition", "Unit name": "%", "Value": 2.31}
{"Smiles data": "COc1cc2ncn(-c3cc(OCc4ccccc4C(F)(F)F)c(C(=O)N(C)C)s3)c2cc1OC", "Readout name": "inhibition", "Unit name": "%", "Value": -1.23}
{"Smiles data": "Cc1ccc2c(-c3ccnc(Nc4ccccc4)n3)c(-c3ccc(F)cc3)nn2n1", "Readout name": "inhibition", "Unit name": "%", "Value": 9.59}
{"Smiles data": "c1ccc(-c2nc3n(c2-c2ccc4c(c2)OCO4)CCC3)nc1", "Readout name": "inhibition", "Unit name": "%", "Value": 0.69}
{"Smiles data": "Cc1cccc(Nc2ncc(-c3ccccc3)o2)c1", "Readout name": "inhibition", "Unit name": "%", "Value": 5.23}
{"Smiles data": "CCN(CC)S(=O)(=O)c1ccc(OC)c(Nc2ncc(-c3ccccc3)o2)c1", "Readout name": "inhibition", "Unit name": "%", "Value": 0.18}
{"Smiles data": "NS(=O)(=O)c1ccc(Nc2ncc(-c3ccccc3)o2)cc1", "Readout name": "inhibition", "Unit name": "%", "Value": 6.58}
{"Smiles data": "CCn1c(-c2nonc2N)nc2ccccc21", "Readout name": "inhibition", "Unit name": "%", "Value": 2.08}
{"Smiles data": "COc1ccc(-c2nn3ncccc3c2-c2ccnc(Nc3ccc4c(c3)OCCO4)n2)cc1", "Readout name": "inhibition", "Unit name": "%", "Value": -2.89}
{"Smiles data": "COc1ccc2c(-c3ccnc(Nc4cccc(OC(F)(F)F)c4)n3)cnn2n1", "Readout name": "inhibition", "Unit name": "%", "Value": 1.54}
{"Smiles data": "Fc1ccc(-c2cc(-c3c[nH]nc3-c3ccccn3)ccn2)cc1", "Readout name": "inhibition", "Unit name": "%", "Value": 6.18}
{"Smiles data": "CCn1c(-c2nonc2N)nc2c(C#CC(C)(C)O)ncc(OC3CCNCC3)c21", "Readout name": "inhibition", "Unit name": "%", "Value": 1.54}
{"Smiles data": "Fc1ccc(-c2nn3ncccc3c2-c2ccnc(Nc3ccc4c(c3)OCCO4)n2)cc1", "Readout name": "inhibition", "Unit name": "%", "Value": 4.68}
{"Smiles data": "COc1ccc(-c2oc3ncnc(N)c3c2-c2ccc(NC(=O)Nc3cc(C(F)(F)F)ccc3F)cc2)cc1", "Readout name": "inhibition", "Unit name": "%", "Value": 10.1}
{"Smiles data": "Fc1cccc(COc2ccc(Nc3ncnc4sc(-c5ccco5)cc34)cc2Cl)c1", "Readout name": "inhibition", "Unit name": "%", "Value": 1.73}

src = ChEMBL document CHEMBL1961873
